# Test system: pulmonary arterial smooth muscle cells
# test_summary: Suppression of proliferation of pulmonary arterial smooth muscle cells (PDGF-BB stimulation, BrdU)
# Type: cell-based
# condition: healthy human derived pulmonary arterial smooth muscle cells; human PDGF-BB 10 ng/mL stimulation; BrdU uptake after 1 day; test substance final concentration 3 to 10,000 nM; read-out: Human normal PASMC proliferation suppression (PDGF stimulation_IC50)
# Method: 1. Preparation of Test Substance Furthermore, it was diluted by 50 times with distilled water. 2. Measurement of Suppression Action Against Proliferation of Pulmonary Arterial Smooth Muscle Cells The day after healthy human derived pulmonary arterial smooth muscle cells were seeded onto a 96 well plate using a smooth muscle cell proliferation medium, the proliferation medium was replaced with a 0.1% FBS medium, and the cells were cultured for an additional day. […]
measured_metric: pIC50
Friendly reminder that pIC50 comes from taking -log10 of the concentration in mol/L.

>>> result_number("COC1CC(C(=O)Nc2ccc(CNc3cc(C(=O)N[C@H]4CCCC[C@@H]4O)ccc3C)cn2)C1 (some centres unmarked)")
7.29

// next item, pIC50 requested
Notebook: `Cc1ccc(CNc2cncc(-c3ncccn3)c2)cc1NC(=O)N[C@@H]1CCCC[C@@H]1O` , pIC50 read as 6.82

###

# assayed_system: TEL-PDGFRβ fusion gene transfected cells (Ba/F3)
# Sequence (P09619 33-1106 limits assumed, change not shown): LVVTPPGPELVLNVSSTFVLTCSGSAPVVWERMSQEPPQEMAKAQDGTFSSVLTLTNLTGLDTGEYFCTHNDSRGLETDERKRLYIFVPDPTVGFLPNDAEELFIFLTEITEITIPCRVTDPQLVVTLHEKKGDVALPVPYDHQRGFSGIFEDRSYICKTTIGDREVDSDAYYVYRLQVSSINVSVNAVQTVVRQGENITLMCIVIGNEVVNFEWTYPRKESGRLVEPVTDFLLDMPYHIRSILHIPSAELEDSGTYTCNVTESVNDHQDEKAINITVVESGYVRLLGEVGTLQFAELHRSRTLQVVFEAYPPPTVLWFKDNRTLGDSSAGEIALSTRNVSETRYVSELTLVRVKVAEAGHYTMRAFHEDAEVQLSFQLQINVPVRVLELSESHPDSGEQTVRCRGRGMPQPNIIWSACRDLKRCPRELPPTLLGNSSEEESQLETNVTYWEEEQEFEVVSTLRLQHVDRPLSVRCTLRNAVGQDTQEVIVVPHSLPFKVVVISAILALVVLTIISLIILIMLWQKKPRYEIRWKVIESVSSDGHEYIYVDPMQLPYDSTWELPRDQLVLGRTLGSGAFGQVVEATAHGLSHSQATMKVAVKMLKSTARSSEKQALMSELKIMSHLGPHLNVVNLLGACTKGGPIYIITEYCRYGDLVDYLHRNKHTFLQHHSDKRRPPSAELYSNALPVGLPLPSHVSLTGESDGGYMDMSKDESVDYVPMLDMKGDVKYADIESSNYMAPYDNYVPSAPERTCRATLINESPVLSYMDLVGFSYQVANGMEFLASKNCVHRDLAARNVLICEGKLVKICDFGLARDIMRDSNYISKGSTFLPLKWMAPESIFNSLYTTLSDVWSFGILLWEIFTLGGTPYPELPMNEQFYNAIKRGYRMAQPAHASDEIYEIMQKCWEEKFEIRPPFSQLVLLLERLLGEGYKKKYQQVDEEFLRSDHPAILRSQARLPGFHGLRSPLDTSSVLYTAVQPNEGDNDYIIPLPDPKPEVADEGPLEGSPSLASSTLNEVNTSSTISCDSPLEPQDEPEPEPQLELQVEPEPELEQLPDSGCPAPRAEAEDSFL
# test_summary: Suppression of proliferation of TEL-PDGFRβ fusion gene transfected Ba/F3 cells
# condition: TEL-PDGFRβ expressing Ba/F3 cells, 72 hours, final concentration 0.1 to 10,000 nM; read-out: PDGFR β/BaF3 proliferation inhibition (IC50)
measured_metric: log10(IC50) (log10 of the value in nM)
Lab note - IC50 converted to log10 from values in nM.

Recorded log10(IC50), per entry:
>>> result_number("Cc1ccc(C(=O)N[C@H]2CCCC[C@@H]2O)cc1NCc1cncc(-c2ccsc2)c1")
0.61
>>> result_number("Cc1ccc(C(=O)N[C@H]2CCCC[C@@H]2O)cc1C#Cc1cncc(-c2cnccn2)c1")
-0.10
>>> result_number("Cc1ccc(C(=O)N[C@H]2CCCC[C@@H]2O)cc1NC(=O)c1cnc(NC2CC(F)(F)C2)s1")
1.70
>>> result_number("Cc1ccc(C(=O)N[C@H]2CCCC[C@@H]2O)cc1NC(=O)c1cncc(-c2ccccc2Cl)c1")
1.23
>>> result_number("Cc1ccc(C(=O)N[C@H]2CCCC[C@@H]2O)cc1N[C@@H](C)c1cncc(-c2ccccc2)c1")
1.70

Notebook: `Cc1ccc(C(=O)N[C@H]2CCCC[C@@H]2O)cc1NC(=O)c1cncc(NCC2CC2)c1` , log10(IC50) read as 2.11

Notebook: `Cc1c(F)cc(C(=O)N[C@H]2CCCC[C@@H]2O)cc1NC(=O)c1cnc(CC2CC2)s1` , log10(IC50) read as 1.20

Notebook: `Cc1ccc(C(=O)N[C@H]2CCCC[C@@H]2O)cc1NC(=O)c1cncc(-c2ccccc2C)c1` , log10(IC50) read as 1.54

Notebook: `Cc1ccc(C(=O)N[C@H]2CCCC[C@@H]2O)cc1N[C@@H](C)c1cncc(-c2ccccn2)c1` , log10(IC50) read as 1.30

Notebook: `O=C(N[C@H]1CCCC[C@@H]1O)c1ccc(Cl)c(C#Cc2cncc(Br)c2)c1` , log10(IC50) read as 2.64

Notebook: `Cc1ccc(C(=O)N[C@H]2CCCC[C@@H]2O)cc1NC(=O)c1cncc(-c2ccccc2)c1` , log10(IC50) read as 0.56

Notebook: `Cc1ccc(C(=O)N[C@H]2CCCC[C@@H]2O)cc1NC(=O)c1cnc(NCCC2CC2)s1` , log10(IC50) read as 0.97

Notebook: `Cc1ccc(C(=O)N[C@H]2CCCC[C@@H]2O)cc1NC(=O)c1cnc(CC2CC2)s1` , log10(IC50) read as 0.15

Notebook: `Cc1ccc(C(=O)N[C@H]2CCCC[C@@H]2O)cc1NC(=O)c1cncc(-c2ccccc2F)c1` , log10(IC50) read as 0.88

Notebook: `Cc1ccc(C(=O)N[C@@H](CO)[C@@H](O)c2ccccc2)cc1Nc1ccnc(-c2cncc3ccccc23)n1` , log10(IC50) read as 1.90

Notebook: `Cc1ccc(C(=O)N[C@@H](CO)[C@@H](O)c2ccccc2)cc1CNc1cncc(-c2ccccc2)n1` , log10(IC50) read as 1.34
